All values here come from the supplement of paper PMC10724198.

# Tested on: Saccharomyces cerevisiae;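 further: PSI is a weighted mean of sequencing reads over stability bins, variants kept only with over 10 reads, mCherry proximal and sfGFP distal, peptide attached via GGGS linker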
# test.details: protein stability index of tFT-peptide fusion (C-terminal peptide) (PSI (0-1 scale)); higher = more stable (slower turnover)
# measurement.conditions: genetic background: wild type; temperature: 30 C
Assignment: determine reported protein stability index for the given sequences.
Just the number, please, no unit after it.

Prompt line: Consider the sequence LAGGRCGCGTHD and give its measured protein stability index.
Response line: 0.684

Prompt line: Next record, please: KFNFVRMSSLRL
Response line: 0.692

Prompt line: Next record, please: AVLPSLWLWTKK
Response line: 0.682

Prompt line: Next record, please: EKTKEHRNDSQR
Response line: 0.695

Prompt line: Next record, please: GVVMMGERGGER
Response line: 0.685

Prompt line: Next record, please: APPPRLAPTLSS
Response line: 0.775

Prompt line: Next record, please: PPPTPLLLSHLL
Response line: 0.709

Prompt line: Next record, please: AFPSISNEVVSV
Response line: 0.707

Prompt line: Next record, please: FCFRFISCPLHF
Response line: 0.549

Prompt line: Next record, please: PSPPPPGLFPLP
Response line: 0.632

Prompt line: Next record, please: PRAHIDWALTVM
Response line: 0.548

Prompt line: Next record, please: TDSSWEVSLMVG
Response line: 0.374

Prompt line: Next record, please: RKKENKIANRKI
Response line: 0.689

Prompt line: Next record, please: VSYLLPPPPPPP
Response line: 0.682

Prompt line: Next record, please: IHQQEVKSRICT
Response line: 0.592

Prompt line: Next record, please: LFFRLLCAFLFL
Response line: 0.529

Prompt line: Next record, please: PDEFIAKRWNST
Response line: 0.62

Prompt line: Next record, please: SQGLALFLRPGY
Response line: 0.628

Prompt line: Next record, please: SGGRVSGLVGEE
Response line: 0.673

Prompt line: Next record, please: TWGGGRVSLGVG
Response line: 0.328

Prompt line: Next record, please: PPLAAFLPFLAL
Response line: 0.694

Prompt line: Next record, please: IFKSGLPLRVGL
Response line: 0.657

Prompt line: Next record, please: ESFLLSLNLLSY
Response line: 0.616

Prompt line: Next record, please: QCSPGLPHAQGL
Response line: 0.565

Prompt line: Next record, please: EQICNCKIIMVE
Response line: 0.567

Prompt line: Next record, please: KKKKKNNKRQKQ
Response line: 0.593

Prompt line: Next record, please: PLPRPLPPRVPF
Response line: 0.712

Prompt line: Next record, please: TRLTSSGVGSVP
Response line: 0.683

Prompt line: Next record, please: SVFTLLGSMCLE
Response line: 0.664

Prompt line: Next record, please: SFVCFSYYIVNI
Response line: 0.51

Prompt line: Next record, please: LVRCDSSSPLPP
Response line: 0.686

Prompt line: Next record, please: TWIGRLGAGLPF
Response line: 0.779

Prompt line: Next record, please: SRPSPAMFLFSP
Response line: 0.737

Prompt line: Next record, please: APCLLNTLRPSP
Response line: 0.686

Prompt line: Next record, please: ASVLGGLFRDRV
Response line: 0.773

Prompt line: Next record, please: LLSPDAALGRLF
Response line: 0.692

Prompt line: Next record, please: TTDKNEAHVYSR
Response line: 0.693

Prompt line: Next record, please: VLLRRRASSISG
Response line: 0.671

Prompt line: Next record, please: VLDFSVPRHVLH
Response line: 0.707

Prompt line: Next record, please: ARGVAAAFVSGF
Response line: 0.595

Prompt line: Next record, please: WGGSGGREPGGS
Response line: 0.753

Prompt line: Next record, please: VMAVARIEVKMR
Response line: 0.587

Prompt line: Next record, please: GCFTLLCFRRIL
Response line: 0.511

Prompt line: Next record, please: LVLLIQKFLTDK
Response line: 0.553

Prompt line: Next record, please: LASVSNFLASGK
Response line: 0.72

Prompt line: Next record, please: GTDVGKVSASQG
Response line: 0.638

Prompt line: Next record, please: PTPHHPPPHPGP
Response line: 0.726

Prompt line: Next record, please: LSPGTPVSAPRL
Response line: 0.655

Prompt line: Next record, please: GLGGGRCFWGVG
Response line: 0.686

Prompt line: Next record, please: PHLESVRYGLFS
Response line: 0.709

Prompt line: Next record, please: WFVLYAEVMGFW
Response line: 0.349

Prompt line: Next record, please: EVSSGGQRVGRS
Response line: 0.763

Prompt line: Next record, please: SPRRWVSGHPRG
Response line: 0.711

Prompt line: Next record, please: GSLSIVVCSFEF
Response line: 0.542

Prompt line: Next record, please: EVEINGRLVGKM
Response line: 0.646

Prompt line: Next record, please: ECGLGGWGGLGV
Response line: 0.657

Prompt line: Next record, please: HVKVGCGNGIVR
Response line: 0.644

Prompt line: Next record, please: KKVDLEDQRKER
Response line: 0.745

Prompt line: Next record, please: ALFPPPSLRPLP
Response line: 0.724

Prompt line: Next record, please: LGVSYAPLPFLS
Response line: 0.65

Prompt line: Next record, please: YVGGGAGVLLVL
Response line: 0.623

Prompt line: Next record, please: RTHTAALCRTHS
Response line: 0.705

Prompt line: Next record, please: CQERKLKNQPMV
Response line: 0.607

Prompt line: Next record, please: YLYLKSRDTFLN
Response line: 0.709

Prompt line: Next record, please: PTRAPVKPDQHP
Response line: 0.798

Prompt line: Next record, please: PLPPPDPPAPSL
Response line: 0.716

Prompt line: Next record, please: VWSVDVSGCVVR
Response line: 0.641

Prompt line: Next record, please: SRGPSLYLCGVR
Response line: 0.63

Prompt line: Next record, please: SPRPTRPALLPP
Response line: 0.708
